tested on: KB; test: Anticancer activity against human KB cells after 72 hrs by sulforhodamine B assay; type: functional
endpoint: log10(GI50) (log10 of the value in µM)
Note the log scale: values are log10 of GI50 expressed in µM.

Problem: Fill in reported log10(GI50) for this entry: `COc1ccc2c3c(c4cc(OC)c(OC)cc4c2c1)C[C@H]1CCN(N(C)C)CN1C3`
Solution: 0.49

Problem: Fill in reported log10(GI50) for this entry: `COc1ccc2c3c(c4cc(OC)c(OC)cc4c2c1)C[C@H]1CCOCN1C3`
Solution: 0.22

Problem: Fill in reported log10(GI50) for this entry: COc1ccc2c3c(c4cc(OC)c(OC)cc4c2c1)CC1CCOCCN1C3 (single isomer, unassigned)
Solution: -1.17

Problem: Fill in reported log10(GI50) for this entry: `COc1ccc2c3c(c4cc(OC)c(OC)cc4c2c1)C[C@H]1CCCCN1C3`
Solution: -2.82

Problem: Fill in reported log10(GI50) for this entry: `COc1ccc2c3c(c4cc(OC)c(OC)cc4c2c1)C[C@@H]1CN(C(=O)c2ccccc2)CCN1C3`
Solution: 1.08

Problem: Fill in reported log10(GI50) for this entry: `COc1ccc2c3c(c4cc(OC)c(OC)cc4c2c1)C[C@@H]1CN(C(=O)N(C)C)CCN1C3`
Solution: 1.09

Problem: Fill in reported log10(GI50) for this entry: `CCN1CCN2Cc3c(c4cc(OC)c(OC)cc4c4cc(OC)ccc34)C[C@H]2C1`
Solution: 0.92
